Kindly state Vz_obs for each of the entries shown.
assay: Pharmacokinetic study in mice (IV and PO), plasma; type: in vivo, mouse; conditions: mouse plasma, IV, 3 mg/kg
Write the number in L/kg without appending the unit.

Exercise: Endpoint output: Vz_obs of CN1CCN(CCOc2cnc(N[C@H]3CC[C@@H](Oc4nc(N5CCOCC5)cc5ncccc45)CC3)nc2)CC1 [Compound 69] . Value?
Solution: 8.82488

Exercise: Endpoint output: Vz_obs of O=C(COc1cnc(N[C@H]2CC[C@@H](Oc3nc(N4CCOCC4)cc4ncccc34)CC2)nc1)N1CCC1 [Compound 75] . Value?
Solution: 0.88515

Exercise: Endpoint output: Vz_obs of CN(C)C(=O)Cn1ccc2nc(N[C@H]3CC[C@@H](Oc4nc(N5CCOCC5)cc5ncccc45)CC3)ncc21 [Compound 86] . Value?
Solution: 1.8426

Exercise: Endpoint output: Vz_obs of O=C(COc1cnc(N[C@H]2CC[C@@H](Oc3nc(N4CCOCC4)cc4ncccc34)CC2)nc1)N1CCOCC1 [Compound 61] . Value?
Solution: 1.7849

Exercise: Endpoint output: Vz_obs of CN(C)C(=O)Cn1c(=O)n(C2CCOCC2)c2nc(N[C@H]3CC[C@@H](Oc4nc(N5CCOCC5)cc5ncccc45)CC3)ncc21 [Compound 97] . Value?
Solution: 2.18741

====

Kindly state pIC50 for each of the entries shown.
molecular target: DNA-PK phosphorylation at Serine 2056 (Homo sapiens); construct: FaDu cells were purchased from ATCC; host or cells: FaDu; experiment: Cellular Assay for Inhibition of DNA-PK Phosphorylation at Serine 2056 in FaDu cells (sandwich ELISA, neocarzinostatin); format: cell-based; details: pSer2056 DNA-PK, Table 3
pIC50: −log10 of the molar value.

Exercise: Endpoint output: pIC50 of CC(c1cnc([N+](=O)[O-])n1C)N(c1cnc2cc(N3CCOCC3)nc(O[C@H]3CC[C@@H](Nc4ncc(OCCN5CCN(C)CC5)cn4)CC3)c2c1)S(C)(=O)=O (stereo partly drawn) . Value?
Solution: 4.52 to 5.00

Exercise: Endpoint output: pIC50 of CC(Oc1cnc2cc(N3CCOCC3)nc(O[C@H]3CC[C@@H](Nc4ncc(OCCN(C)C)cn4)CC3)c2c1)c1cnc([N+](=O)[O-])n1C (stereo partly drawn) . Value?
Solution: 5.00 to 6.00

Exercise: Endpoint output: pIC50 of CS(=O)(=O)Nc1cnc2cc(N3CCOCC3)nc(O[C@H]3CC[C@@H](Nc4ncc(N5CCN(CC(F)(F)F)CC5)cn4)CC3)c2c1 . Value?
Solution: > 7.00

Exercise: Endpoint output: pIC50 of CS(=O)(=O)Nc1cnc2cc(N3CCOCC3)nc(O[C@H]3CC[C@@H](Nc4ncc(N5CCN(CC(F)F)CC5)cn4)CC3)c2c1 . Value?
Solution: > 7.00

Exercise: Endpoint output: pIC50 of CC(c1cnc([N+](=O)[O-])n1C)N(c1cnc2cc(N3CCOCC3)nc(O[C@H]3CC[C@@H](Nc4ncc(OCCN(C)C)cn4)CC3)c2c1)S(C)(=O)=O (stereo partly drawn) . Value?
Solution: 4.52 to 5.00

Exercise: Endpoint output: pIC50 of Cc1nc(N[C@H]2CC[C@@H](Oc3nc(N4CCOCC4)cc4ncc(N(Cc5cnc([N+](=O)[O-])n5C)S(C)(=O)=O)cc34)CC2)ccc1F . Value?
Solution: 4.52 to 5.00
